Cited source: ChEMBL document CHEMBL4052689

# targetDesc: Muscarinic acetylcholine receptor M4 (Homo sapiens)
# Sequence (whole entry): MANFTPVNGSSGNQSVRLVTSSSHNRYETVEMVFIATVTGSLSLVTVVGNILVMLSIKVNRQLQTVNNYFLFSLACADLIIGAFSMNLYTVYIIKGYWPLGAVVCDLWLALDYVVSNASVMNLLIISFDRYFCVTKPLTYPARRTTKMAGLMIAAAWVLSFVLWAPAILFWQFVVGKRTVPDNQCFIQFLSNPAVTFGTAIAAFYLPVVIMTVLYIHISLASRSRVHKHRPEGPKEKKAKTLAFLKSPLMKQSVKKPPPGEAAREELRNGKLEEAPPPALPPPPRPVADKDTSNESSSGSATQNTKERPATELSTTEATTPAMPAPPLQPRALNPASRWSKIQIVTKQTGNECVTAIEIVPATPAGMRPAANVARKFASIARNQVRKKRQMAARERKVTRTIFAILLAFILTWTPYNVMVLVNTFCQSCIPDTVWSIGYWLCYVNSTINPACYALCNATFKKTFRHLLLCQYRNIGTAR
# methodNotes: Antagonist activity at human recombinant muscarinic M4 receptor expressed in CHO cells co-transfected with Gqi5 assessed as acetylcholine-induced response in presence of EC80 acetylcholine by calcium mobilization assay relative to untreated control
# Format: functional, cell-based
# Parameters: scale not given: the % may be the effect or the level left
experimentalReadout: Activity (%)
Please respond with the number in % and leave the unit unwritten.

Lab note: need Activity for C[C@H]1COCCN1c1ccc(N2CCN(S(=O)(=O)c3ccc4c(c3)OCO4)CC2)nn1 on Muscarinic acetylcholine receptor M4 (Homo sapiens), anyone have it?
63

Activity of Cc1noc(C)c1S(=O)(=O)N1CCN(c2ccc(N3CCOC[C@@H]3C)nn2)CC1 on Muscarinic acetylcholine receptor M4 (Homo sapiens)?
66

// map Cc1noc(C)c1S(=O)(=O)N1CCN(c2ccc(N3CCC[C@@H]3C)nn2)CC1 to recorded Activity (system: Muscarinic acetylcholine receptor M4 (Homo sapiens))
10

Recall the recorded Activity for O=C1CCCCN1c1ccc(N2CCN(S(=O)(=O)c3ccccc3Cl)CC2)nn1 with Muscarinic acetylcholine receptor M4 (Homo sapiens) and state it.
51

Look up Activity with Muscarinic acetylcholine receptor M4 (Homo sapiens) for this compound: COc1ccc(S(=O)(=O)N2CCN(c3ccc(N4CCCC[C@@H]4C)nn3)CC2)cc1OC
46

API: value(readout=Activity, system=Muscarinic acetylcholine receptor M4 (Homo sapiens)) for record Cc1noc(C)c1S(=O)(=O)N1CCN(c2ccc(N3CCCC[C@@H]3C)nn2)CC1
6

Which Activity is reported with Muscarinic acetylcholine receptor M4 (Homo sapiens) for this entry: C[C@H]1CCCN1c1ccc(N2CCN(S(=O)(=O)c3ccc4c(c3)OCO4)CC2)nn1 ?
14

Query the reported Activity for Muscarinic acetylcholine receptor M4 (Homo sapiens); item: C[C@H]1COCCN1c1ccc(N2CCN(S(=O)(=O)c3ccccc3Cl)CC2)nn1
56

# value lookup — system Muscarinic acetylcholine receptor M4 (Homo sapiens), readout Activity, item Cc1noc(C)c1S(=O)(=O)N1CCN(c2ccc(N3CCCCCC3)nn2)CC1
8
